# Tested on: human colorectal HT-29 tumor cell line
# protocolDescription: Cell growth inhibition assay (alamar blue)
# Assay type: cell-based
# testContext: HT29, 20 μM, 72 h
measurementLabel: % Growth inhibition at 20 μM (%)
Lab book: enter the figure in %, no units written.

Query :: Need % Growth inhibition at 20 μM, item O=C(Nc1ccccc1)Nc1ccc2nc(-c3ccco3)c(-c3ccco3)nc2c1
Result :: 52.1

Query :: Need % Growth inhibition at 20 μM, item O=C(Nc1ccc(F)cc1)Nc1ccc2nc(-c3ccco3)c(-c3ccco3)nc2c1
Result :: 74.2

Query :: Need % Growth inhibition at 20 μM, item O=[N+]([O-])c1ccc(NC(=S)Nc2ccc3nc(-c4ccco4)c(-c4ccco4)nc3c2)cc1
Result :: 42.0

Query :: Need % Growth inhibition at 20 μM, item O=C(Nc1ccc2nc(-c3ccco3)c(-c3ccco3)nc2c1)N1CCC(Cc2ccccc2)CC1
Result :: 55.2

* * *

Exercise: state measured % Growth inhibition at 20 μM for each of the molecules provided.
# Test system: human colorectal HT-29 tumor cell line
# protocolDescription: Cell growth inhibition assay (alamar blue)
# Type: cell-based
# testContext: HT29, 20 μM, 72 h
Lab book: enter the figure in %, no units written.

Query :: Need % Growth inhibition at 20 μM, item O=[N+]([O-])c1ccc(NC(=S)Nc2ccc3nc(-c4cccs4)c(-c4cccs4)nc3c2)cc1 [6e]
Result :: 23.9

Query :: Need % Growth inhibition at 20 μM, item S=C(Nc1ccccc1)Nc1ccc2nc(-c3ccco3)c(-c3ccco3)nc2c1 [6a]
Result :: 26.1

Query :: Need % Growth inhibition at 20 μM, item Cc1nc2ccc(NC(=O)N3CCC(Cc4ccccc4)CC3)cc2nc1C [6j]
Result :: 16.3

* * *

# Test system: human colorectal HT-29 tumor cell line
# protocolDescription: Cell growth inhibition assay (alamar blue)
# Assay type: cell-based
# testContext: HT29, 20 μM, 72 h
measurementLabel: % Growth inhibition at 20 μM

Example compounds with recorded % Growth inhibition at 20 μM:
{"compoundStructure": "O=C(Nc1ccc(-c2ccccc2)cc1)Nc1ccc2nc(-c3ccco3)c(-c3ccco3)nc2c1", "result": "72.4 ± 7.6%"}
{"compoundStructure": "CC(=O)Nc1ccc2nc(C)c(C)nc2c1", "result": "31.7 ± 2.8%"}
{"compoundStructure": "O=C(Nc1ccccc1)Nc1ccc2nc(-c3ccccc3)c(-c3ccccc3)nc2c1", "result": "Inactive"}
{"compoundStructure": "Cc1nc2ccc(NC(=O)Nc3ccccc3)cc2nc1C", "result": "Inactive"}
{"compoundStructure": "Cc1ccc(S(=O)(=O)Nc2ccc3nc(-c4ccccc4)c(-c4ccccc4)nc3c2)cc1", "result": "Inactive"}

Query :: Need % Growth inhibition at 20 μM, item O=[N+]([O-])c1ccc(NC(=S)Nc2ccc3nc(-c4ccccc4)c(-c4ccccc4)nc3c2)cc1
Result :: 81.2 ± 0.7%

Query :: Need % Growth inhibition at 20 μM, item CC(=O)Nc1ccc2nc(-c3ccco3)c(-c3ccco3)nc2c1
Result :: 7.6 ± 5.1%

Query :: Need % Growth inhibition at 20 μM, item CC(=O)Nc1ccc2nc(-c3ccccc3)c(-c3ccccc3)nc2c1
Result :: Inactive

Query :: Need % Growth inhibition at 20 μM, item Cc1nc2ccc(NC(=O)N3CCCC3)cc2nc1C
Result :: Inactive

Query :: Need % Growth inhibition at 20 μM, item O=C(Nc1ccc2nc(-c3ccco3)c(-c3ccco3)nc2c1)N1CCCC1
Result :: 16.7 ± 3.7%
